Test system: Inhibin beta A chain (activin A)
Test: INHBA (activin A) binders on microarrays, primary screen, biochemical, small-molecule microarray, 635 nm fluorescence scan (AID 1107);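 note: mouse activin A protein probed at 4.33 µg/mL on printed slides; score merges bound-protein fluorescence near 667 nm with spot signal-to-noise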
Details: small-molecule microarray binding, higher = more signal
readout: composite z-score
Reply with the value as a number alone.

Lab book: composite z-score of `CCN1C(C)=C(C(=O)OC)[C@@H](c2ccccc2)N2C(=O)[C@@]3(C(=O)OC)O[C@@]12[C@@H]1C(=O)N(c2ccccc2)C(=O)[C@@H]13` noted as -0.545

Lab book: composite z-score of `CCN1C(C)=C(C(=O)OC)[C@@H](c2ccccc2)N2C(=O)[C@@]3(C(=O)OC)O[C@@]12[C@@H]1C(=O)N(C)C(=O)[C@@H]13` noted as 0.613

Lab book: composite z-score of `C=C(C(=O)CC[C@H](OC(=O)c1ccccc1-c1ccccc1C(=O)O)c1ccc(CO)o1)C(C)C` noted as 0.664

Lab book: composite z-score of `C=C(COC)/C(=C/C[C@H](OC(C)=O)c1ccc(OCCO)cc1)c1cnc2ccccc2c1` noted as 1.8

Lab book: composite z-score of `C/C(=N\O)C(=O)NCCCCCNC(=O)OCc1ccccc1` noted as 0.102

Lab book: composite z-score of `CCOC(=O)[C@H]1C/C=C/C[C@H](C(=O)OCC)C(=O)O[C@H]2[C@@H](OC)O[C@H](CO)[C@@H](OC(=O)Nc3ccc(Br)cc3)[C@@H]2OC1=O` noted as 0.706

Lab book: composite z-score of CN1C(=O)C2C=CC(C(O)c3ccc(N(C)C)cc3)N(Nc3ccc([N+](=O)[O-])cc3[N+](=O)[O-])C2C1=O (configuration not stated) noted as 1.49
